System: Serine/threonine-protein kinase PAK 6 (Homo sapiens) | Read-out: ΔTm
Field: numeric (°C). Do not append units.

COc1ccc(CNC(=O)Nc2ncc([N+](=O)[O-])s2)cc1    0.5
COC1=C2C[C@@H](C)C[C@H](OC)[C@H](O)[C@@H](C)/C=C(\C)[C@H](OC(N)=O)[C@@H](OC)/C=C\C=C(/C)C(=O)NC(=CC1=O)C2=O    0.3
Cc1[nH]c(/C=C2\C(=O)Nc3ccc(S(=O)(=O)N(C)c4cccc(Cl)c4)cc32)c(C)c1C(=O)N1CCN(C)CC1    2

Next compound, ΔTm to be filled in.
Summary line: `O=C(Nc1cccc(Nc2cc(Nc3cccc(C(F)(F)F)c3)ncn2)c1)C1CC1` , Serine/threonine-protein kinase PAK 6 (Homo sapiens), reported ΔTm = -0.3

====

TARGET OF ASSAY: Serine/threonine-protein kinase pim-2 (Homo sapiens)
Sequence (Q9P1W9 whole entry, looked up): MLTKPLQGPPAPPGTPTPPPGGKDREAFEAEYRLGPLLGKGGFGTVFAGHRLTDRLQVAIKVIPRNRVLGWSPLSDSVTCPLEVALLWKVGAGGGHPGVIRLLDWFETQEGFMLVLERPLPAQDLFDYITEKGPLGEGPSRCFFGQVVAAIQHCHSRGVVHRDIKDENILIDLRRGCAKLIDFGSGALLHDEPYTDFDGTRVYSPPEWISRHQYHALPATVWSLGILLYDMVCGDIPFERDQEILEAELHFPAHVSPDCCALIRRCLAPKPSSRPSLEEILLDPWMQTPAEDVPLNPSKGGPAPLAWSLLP
Please mark y if the recorded ΔTm is equal to or greater than 0.4 °C, and n if it falls below.

Does ΔTm meet or surpass 0.4 °C for `COc1ccc(CNC(=O)Nc2ncc([N+](=O)[O-])s2)cc1` ?
n

====

TARGET OF ASSAY: Tyrosine-protein kinase JAK1 (Homo sapiens) (UniProt P23458)
Sequence (P23458 whole entry): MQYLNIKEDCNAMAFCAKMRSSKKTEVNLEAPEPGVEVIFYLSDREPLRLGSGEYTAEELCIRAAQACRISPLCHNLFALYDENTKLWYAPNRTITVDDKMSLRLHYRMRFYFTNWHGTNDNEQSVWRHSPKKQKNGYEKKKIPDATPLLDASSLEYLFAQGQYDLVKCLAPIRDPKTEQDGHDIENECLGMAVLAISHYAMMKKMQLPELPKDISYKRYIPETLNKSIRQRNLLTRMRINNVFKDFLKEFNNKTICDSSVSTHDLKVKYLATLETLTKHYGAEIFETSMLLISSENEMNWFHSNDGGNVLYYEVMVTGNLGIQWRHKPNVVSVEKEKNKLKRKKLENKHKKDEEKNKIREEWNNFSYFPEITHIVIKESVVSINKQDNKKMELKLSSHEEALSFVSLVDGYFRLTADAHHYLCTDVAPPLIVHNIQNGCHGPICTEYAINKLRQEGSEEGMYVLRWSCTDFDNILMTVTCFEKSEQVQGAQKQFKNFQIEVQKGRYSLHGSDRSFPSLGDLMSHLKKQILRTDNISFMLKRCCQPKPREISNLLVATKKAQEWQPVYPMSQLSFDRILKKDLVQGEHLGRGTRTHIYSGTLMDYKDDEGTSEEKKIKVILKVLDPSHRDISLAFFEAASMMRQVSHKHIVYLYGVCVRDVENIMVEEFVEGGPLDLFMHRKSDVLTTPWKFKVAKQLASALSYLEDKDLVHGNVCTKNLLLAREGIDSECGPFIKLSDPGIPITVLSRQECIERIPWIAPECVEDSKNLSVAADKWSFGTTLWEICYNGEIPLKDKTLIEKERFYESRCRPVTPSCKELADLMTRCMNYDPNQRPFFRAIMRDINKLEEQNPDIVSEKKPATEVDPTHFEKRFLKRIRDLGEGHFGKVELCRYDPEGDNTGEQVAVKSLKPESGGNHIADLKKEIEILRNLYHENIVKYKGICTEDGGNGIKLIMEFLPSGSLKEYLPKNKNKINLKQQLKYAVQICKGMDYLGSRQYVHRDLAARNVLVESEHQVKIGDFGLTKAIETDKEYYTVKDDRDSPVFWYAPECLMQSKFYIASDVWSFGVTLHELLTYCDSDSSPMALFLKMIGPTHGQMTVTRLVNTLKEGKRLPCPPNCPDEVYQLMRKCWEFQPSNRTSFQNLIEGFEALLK
Assign true (1) whenever ΔTm does not fall below 0.1 °C; assign false (0) whenever it does.

Past entries and their recorded results:
NCCNS(=O)(=O)c1cccc2c(Cl)cccc12    true (1)
Cc1cc(C=C2C(=O)C=CC2=O)cc(C)c1O    false (0)
CC(C)N(CCO)c1nc(Nc2cccc(Cl)c2)c2ncn(C(C)C)c2n1    true (1)

Say whether CN(C)CC1CCn2c(c(C3=C(c4c[nH]c5ccccc45)C(=O)NC3=O)c3ccccc32)C1 (centres undefined) shows ΔTm of 0.1 °C or more.
false (0)

For this compound, is measured ΔTm 0.1 °C or higher? `Cc1cc2ncc(-c3ccccc3)nc2cc1C`
true (1)

Form field: ΔTm at least 0.1 °C? Entry: `O=C1NC(=O)C(c2cn(CCCn3ccnc3)c3ccccc23)=C1Nc1ccccc1`
true (1)

Could you verify whether the entry `O=Nc1c(-c2c(O)[nH]c3ccccc23)[nH]c2ccccc12` shows ΔTm of no less than 0.1 °C?
true (1)

====

TARGET OF ASSAY: Dual specificity protein kinase CLK2 (Homo sapiens) (UniProt P49760)
Sequence (P49760 whole entry, looked up): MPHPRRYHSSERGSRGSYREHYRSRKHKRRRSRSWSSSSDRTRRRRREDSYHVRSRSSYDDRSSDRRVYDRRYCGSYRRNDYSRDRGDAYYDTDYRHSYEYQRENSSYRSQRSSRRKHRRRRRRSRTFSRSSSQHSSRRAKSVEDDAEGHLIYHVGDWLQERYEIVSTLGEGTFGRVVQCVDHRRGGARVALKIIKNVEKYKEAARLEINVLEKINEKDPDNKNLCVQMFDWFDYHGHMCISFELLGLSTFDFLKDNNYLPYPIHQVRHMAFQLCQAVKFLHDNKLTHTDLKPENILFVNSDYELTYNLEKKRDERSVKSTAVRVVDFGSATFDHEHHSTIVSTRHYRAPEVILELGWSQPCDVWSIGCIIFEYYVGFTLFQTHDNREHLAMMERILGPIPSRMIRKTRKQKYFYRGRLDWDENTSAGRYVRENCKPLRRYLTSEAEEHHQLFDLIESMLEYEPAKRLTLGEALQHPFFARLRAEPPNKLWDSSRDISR
# thresholds on ΔTm define classes: low range (below 0.6 °C), mid range (0.6 °C to below 2 °C), high range (2 °C or more)

Category of CN(C)CC1CCn2c(c(C3=C(c4c[nH]c5ccccc45)C(=O)NC3=O)c3ccccc32)C1 (stereo not given) , please.
mid range

Form field 'band' for `OC[C@H]1O[C@@H](n2cnc3cc(Cl)c(Cl)cc32)[C@H](O)[C@@H]1O`
mid range

Hey, which category is `COc1ccc(CNc2nc(N(CCO)CCO)nc3c2ncn3C(C)C)cc1` in, do you know?
high range

# classify by ΔTm band: NC1=N/C(=C2/CCNC(=O)c3[nH]ccc32)C(=O)N1 [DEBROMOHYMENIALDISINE]
high range

Kindly identify the class of Cn1cnc2c(NCc3ccccc3)nc(NCCO)nc21 [OLOMOUCINE] .
low range

====

TARGET OF ASSAY: Casein kinase I isoform gamma-2 (Homo sapiens) (UniProt P78368)
Sequence (P78368 whole entry, looked up, canonical isoform): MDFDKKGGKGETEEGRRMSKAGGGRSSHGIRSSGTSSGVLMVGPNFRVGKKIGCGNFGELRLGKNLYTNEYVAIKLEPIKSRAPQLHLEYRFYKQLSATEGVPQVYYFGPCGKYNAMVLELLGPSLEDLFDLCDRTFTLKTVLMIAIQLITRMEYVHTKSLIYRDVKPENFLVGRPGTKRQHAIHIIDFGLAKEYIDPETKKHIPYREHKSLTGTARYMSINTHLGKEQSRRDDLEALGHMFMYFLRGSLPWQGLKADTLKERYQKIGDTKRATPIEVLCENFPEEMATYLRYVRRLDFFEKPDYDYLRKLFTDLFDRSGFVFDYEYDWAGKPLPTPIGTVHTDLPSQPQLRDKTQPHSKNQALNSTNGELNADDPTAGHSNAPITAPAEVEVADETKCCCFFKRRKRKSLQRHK
OUTCOME MEASURE: ΔTm

Guide cases for ΔTm, answers given:
COc1cc(OC)c(/C=C2\C(=O)Nc3ccccc32)c(OC)c1    0.7 °C
COc1ccc2c(c1)/C(=C/c1cnc[nH]1)C(=O)N2 [SU-9516]    0.7 °C

Note: attention shifts to another entry.
Note to self: ΔTm of `Cn1cc(C2=C(c3cn(CCCSC(=N)N)c4ccccc34)C(=O)NC2=O)c2ccccc21` with Casein kinase I isoform gamma-2 (Homo sapiens) (UniProt P78368) was 0.7 °C

====

TARGET OF ASSAY: cAMP-dependent protein kinase catalytic subunit alpha (Homo sapiens)
OUTCOME MEASURE: ΔTm

For orientation, consider the following solved cases.
Cn1cc(C2=C(c3cn(CCCSC(=N)N)c4ccccc34)C(=O)NC2=O)c2ccccc21    4.4 °C
COC(=O)[C@]1(O)C[C@@H]2O[C@@]1(C)n1c3ccccc3c3c4c(c5c6ccccc6n2c5c31)C(=O)NC4 (single isomer, unassigned)    7.1 °C
N#C/C(=C\c1ccc(O)c(O)c1)C(=O)NCc1ccccc1    0.6 °C
NCCNS(=O)(=O)c1cccc2c(Cl)cccc12    2.5 °C
O=C1Nc2ccc(I)cc2/C1=C1/Nc2ccccc2/C1=N\O    -0.7 °C

Readout ΔTm for `COc1ccc(CNc2nc(N(CCO)CCO)nc3c2ncn3C(C)C)cc1` , test system cAMP-dependent protein kinase catalytic subunit alpha (Homo sapiens), was 0.5 °C

The compound `CC(C)N(CCO)c1nc(Nc2cccc(Cl)c2)c2ncn(C(C)C)c2n1` , tested on cAMP-dependent protein kinase catalytic subunit alpha (Homo sapiens), showed ΔTm of 1.6 °C

Form field, ΔTm with cAMP-dependent protein kinase catalytic subunit alpha (Homo sapiens), item `CCOc1cc2ncnc(Nc3cccc(Br)c3)c2cc1OCC` : 0.8 °C

Form field, ΔTm with cAMP-dependent protein kinase catalytic subunit alpha (Homo sapiens), item `CCOc1cc(/C=C(\C#N)C(N)=O)cc(CSc2ccccc2)c1O` : 1 °C

====

TARGET OF ASSAY: Serine/threonine-protein kinase PLK4 (Homo sapiens) (UniProt O00444)
Sequence (whole entry): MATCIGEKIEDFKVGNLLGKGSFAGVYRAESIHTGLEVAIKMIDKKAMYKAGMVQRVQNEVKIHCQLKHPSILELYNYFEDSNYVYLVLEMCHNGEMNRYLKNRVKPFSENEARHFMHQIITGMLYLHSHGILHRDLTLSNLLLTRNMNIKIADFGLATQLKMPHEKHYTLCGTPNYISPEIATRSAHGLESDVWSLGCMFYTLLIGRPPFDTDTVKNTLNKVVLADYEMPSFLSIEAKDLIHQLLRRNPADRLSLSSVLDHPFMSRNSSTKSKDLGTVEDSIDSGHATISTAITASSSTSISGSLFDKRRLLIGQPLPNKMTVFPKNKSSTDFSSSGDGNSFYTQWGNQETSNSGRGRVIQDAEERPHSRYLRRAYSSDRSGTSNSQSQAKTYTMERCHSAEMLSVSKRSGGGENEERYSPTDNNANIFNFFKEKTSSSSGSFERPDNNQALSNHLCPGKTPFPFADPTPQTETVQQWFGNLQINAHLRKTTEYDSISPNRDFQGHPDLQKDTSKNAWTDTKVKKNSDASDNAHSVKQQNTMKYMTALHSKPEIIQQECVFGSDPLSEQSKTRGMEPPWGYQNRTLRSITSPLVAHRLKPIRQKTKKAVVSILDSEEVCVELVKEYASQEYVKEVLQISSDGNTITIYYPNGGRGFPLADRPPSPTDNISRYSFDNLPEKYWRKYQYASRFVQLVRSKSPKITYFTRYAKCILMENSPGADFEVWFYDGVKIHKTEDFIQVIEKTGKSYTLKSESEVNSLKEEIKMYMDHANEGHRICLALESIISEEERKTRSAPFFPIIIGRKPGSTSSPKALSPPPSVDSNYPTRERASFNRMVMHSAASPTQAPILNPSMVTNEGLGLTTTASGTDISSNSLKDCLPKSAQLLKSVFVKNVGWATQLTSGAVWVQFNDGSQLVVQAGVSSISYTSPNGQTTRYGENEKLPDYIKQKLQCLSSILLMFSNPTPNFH
In this section, each of the compounds is paired with its reported ΔTm.
Only the number, expressed in °C, is required.

O=C(O)c1cc(N(Cc2ccccc2O)Cc2cc(O)ccc2O)ccc1O    1.1
NS(=O)(=O)c1ccc(Nc2nc(OCC3CCCCC3)c3nc[nH]c3n2)cc1    1.1
COc1cc2c(cc1OC)-c1n[nH]c(Nc3cccc(F)c3)c1C2    1.5
Cc1[nH]c(/C=C2\C(=O)Nc3ccc(S(=O)(=O)N(C)c4cccc(Cl)c4)cc32)c(C)c1C(=O)N1CCN(C)CC1    0.8
Nc1cccc(-c2cc3c(Oc4cccc(O)c4)ncnc3[nH]2)c1    0.8

ΔTm recorded for this compound, `CN(C)c1ncnc2nc[nH]c12` , is 1.3

Recorded ΔTm (compound `CN1CCc2[nH]c(=S)c(C#N)c(-c3cccs3)c2C1` ): 10.7

Memo: `O=C1Nc2ccccc2/C1=C/c1cnc[nH]1` , reported ΔTm: 5.8

====

TARGET OF ASSAY: Calcium/calmodulin-dependent protein kinase type 1D (Homo sapiens) (UniProt Q8IU85)
Sequence (Q8IU85 whole entry, looked up): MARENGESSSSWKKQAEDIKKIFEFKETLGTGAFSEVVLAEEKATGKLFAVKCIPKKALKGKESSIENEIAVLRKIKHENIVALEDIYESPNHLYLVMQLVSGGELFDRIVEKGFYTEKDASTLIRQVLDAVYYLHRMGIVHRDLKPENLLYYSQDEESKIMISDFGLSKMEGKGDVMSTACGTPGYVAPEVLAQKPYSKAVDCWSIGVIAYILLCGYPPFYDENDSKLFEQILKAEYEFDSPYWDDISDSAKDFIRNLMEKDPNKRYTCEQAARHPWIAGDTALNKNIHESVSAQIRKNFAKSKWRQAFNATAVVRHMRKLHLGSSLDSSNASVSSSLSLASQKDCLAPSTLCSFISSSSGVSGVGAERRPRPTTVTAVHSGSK
Quick rule for you: ΔTm under 0 °C gets yes (1), anything else gets no (0).

Example results:
CC(C)(C)c1cc(C=C2C(=O)C=CC2=O)cc(C(C)(C)C)c1O    yes (1)
CN(c1cccnc1)c1cc2c(Nc3ccc(F)c(Cl)c3)c(C#N)cnc2cn1    no (0)
Cc1c2ccncc2c(C)c2c1[nH]c1ccccc12    no (0)

Threshold test, ΔTm < 0 °C: `CC(C)n1cnc2c(NCc3ccccc3)nc(NCCCO)nc21`
no (0)

Check if ΔTm falls below 0 °C for `Cn1cnc2c(NCc3ccccc3)nc(NCCO)nc21` .
yes (1)

Given the entry `O=C1Nc2ccc(I)cc2/C1=C1/Nc2ccccc2/C1=N\O` , would its reported ΔTm be below 0 °C?
no (0)

API: query returns whether the compound falls strictly under 0 °C in ΔTm. Query: `O=C1Nc2cc(Br)ccc2/C1=C1/Nc2ccccc2/C1=N\O`
yes (1)

Bench note: check whether `Nc1n[nH]c2nnc(-c3c(-c4ccccc4)nn4ccccc34)cc12` shows ΔTm below 0 °C
no (0)
